- Study Target: TRPV3 (G573C) (Homo sapiens, UniProt Q8NET8, G573C)
- Sequence (Q8NET8 whole entry G573C): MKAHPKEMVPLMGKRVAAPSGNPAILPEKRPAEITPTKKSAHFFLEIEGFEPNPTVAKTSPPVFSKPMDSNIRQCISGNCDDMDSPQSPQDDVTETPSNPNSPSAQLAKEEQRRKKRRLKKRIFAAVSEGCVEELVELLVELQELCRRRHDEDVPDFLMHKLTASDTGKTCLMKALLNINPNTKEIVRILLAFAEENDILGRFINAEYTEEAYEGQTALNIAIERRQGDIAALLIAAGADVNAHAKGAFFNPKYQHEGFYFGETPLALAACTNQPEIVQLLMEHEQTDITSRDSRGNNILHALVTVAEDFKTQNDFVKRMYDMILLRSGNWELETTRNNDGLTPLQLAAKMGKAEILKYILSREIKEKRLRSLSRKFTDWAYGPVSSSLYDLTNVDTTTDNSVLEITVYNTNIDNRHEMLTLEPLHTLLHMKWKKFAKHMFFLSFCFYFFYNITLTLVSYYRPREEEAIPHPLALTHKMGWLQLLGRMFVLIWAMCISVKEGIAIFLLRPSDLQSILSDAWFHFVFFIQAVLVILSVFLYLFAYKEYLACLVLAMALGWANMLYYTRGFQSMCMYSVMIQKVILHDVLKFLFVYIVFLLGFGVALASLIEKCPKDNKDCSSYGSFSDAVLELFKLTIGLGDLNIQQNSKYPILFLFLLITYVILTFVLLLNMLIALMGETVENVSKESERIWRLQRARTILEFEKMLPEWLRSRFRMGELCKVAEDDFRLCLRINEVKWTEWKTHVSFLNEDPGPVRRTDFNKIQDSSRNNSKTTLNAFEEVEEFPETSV
- Experiment Notes: Whole-cell patch-clamp, spontaneous current of TRPV3 G573C mutant in HEK 293T cells
- Details: −100 mV, read-out: IC50, inhibition of spontaneous current of TRPV3 G573C mutant
pIC50: −log10 of the molar value.
Measured Parameter: pIC50

Compound: COc1c(O)cc2oc3cc(O)c(CC=C(C)C)c(O)c3c(=O)c2c1CC=C(C)C [Alpha-mangostin]
Meas Value: 5.71

* * *

- Study Target: TRPV4 (Homo sapiens, UniProt Q9HBA0)
- Sequence (Q9HBA0 whole entry, species assumed): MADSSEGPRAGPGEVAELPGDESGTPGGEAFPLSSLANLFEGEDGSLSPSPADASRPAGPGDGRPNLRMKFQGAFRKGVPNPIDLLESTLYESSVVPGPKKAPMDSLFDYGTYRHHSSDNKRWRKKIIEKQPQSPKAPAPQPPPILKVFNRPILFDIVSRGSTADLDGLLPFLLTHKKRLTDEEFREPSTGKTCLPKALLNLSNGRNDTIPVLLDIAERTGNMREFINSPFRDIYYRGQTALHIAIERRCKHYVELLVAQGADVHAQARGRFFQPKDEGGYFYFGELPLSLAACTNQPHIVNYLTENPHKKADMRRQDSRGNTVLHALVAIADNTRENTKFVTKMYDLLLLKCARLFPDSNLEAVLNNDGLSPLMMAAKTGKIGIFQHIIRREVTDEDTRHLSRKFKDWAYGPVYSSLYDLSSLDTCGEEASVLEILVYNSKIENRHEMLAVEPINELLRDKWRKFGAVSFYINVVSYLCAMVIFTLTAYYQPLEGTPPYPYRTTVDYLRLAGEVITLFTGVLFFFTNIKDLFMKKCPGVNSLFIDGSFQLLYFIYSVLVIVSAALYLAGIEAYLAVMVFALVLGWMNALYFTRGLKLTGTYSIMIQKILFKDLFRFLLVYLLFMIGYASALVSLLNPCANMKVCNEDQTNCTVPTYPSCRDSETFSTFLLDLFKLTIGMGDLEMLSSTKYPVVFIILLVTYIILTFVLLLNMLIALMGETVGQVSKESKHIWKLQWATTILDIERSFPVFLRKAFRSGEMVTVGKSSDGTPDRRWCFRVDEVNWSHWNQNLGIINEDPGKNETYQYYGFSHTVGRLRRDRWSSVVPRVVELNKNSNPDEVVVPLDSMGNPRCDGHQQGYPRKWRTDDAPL
- Experiment Notes: Whole-cell patch-clamp, GSK101-activated TRPV4 current in transfected HEK 293T cells
- Details: transfected HEK 293T, 300 nM GSK101; read-out: IC50, inhibition of TRPV4 current

Smiles: COc1c(O)cc2oc3cc(O)c(CC=C(C)C)c(O)c3c(=O)c2c1CC=C(C)C
Units Label: µM
IC50: 8.47
